# System: A498
# Procedure text: NCI tumour cell line growth inhibition, 48 h
Activity calls are given as the source filed them. Rule as the data show it: active = GI50 up to about 1.1 µM and inactive = higher.
Readings of GI50 for the listed compounds

O=C(c1ccc(Cl)cc1)N(Cc1cccnc1)C(=S)N(Cc1cccnc1)C(=O)c1ccc(Cl)cc1; 30.5 µM (inactive)
CC(=O)OC1C2CCC1C1C2N=NN1c1ccc([N+](=O)[O-])cc1 (stereo unspecified); > 100 µM (inactive)
CCCCNC(=O)Cn1c2ccc(Br)cc2c2nc3ccccc3nc21; > 100 µM (inactive)
Cc1ccc(S(=O)(=O)NC(C)C(=O)O)cc1 (stereo unspecified); > 100 µM (inactive)
O=C1C=CC(=O)N1n1c(-c2ccccc2)n[nH]c1=O; > 100 µM (inactive)

Query: Supply GI50 value. Item: COc1ccc(N2CN(C)CSC2=S)cc1
Reply: > 100 µM (inactive)

Query: Supply GI50 value. Item: OC[C@H]1CC(c2nn[nH]n2)[C@H](O)[C@@H]1O (stereo partly specified)
Reply: > 100 µM (inactive)

Query: Supply GI50 value. Item: O=C(O)Cn1cc([N+](=O)[O-])c(=O)c2ccccc21
Reply: > 100 µM (inactive)

Query: Supply GI50 value. Item: O=c1[nH]c(=O)n(C2OC(CO)C(O)C2O)cc1OCCCc1ccccc1 (stereo unspecified)
Reply: > 100 µM (inactive)

Query: Supply GI50 value. Item: CC(=O)NCC1OC2COC(c3ccccc3)OC2C(NC(=O)c2ccccc2)C1OC(=O)c1ccccc1 (stereo unspecified)
Reply: 44.5 µM (inactive)

Query: Supply GI50 value. Item: CCC1(C)C=Cc2c(cc(O)c3c(=O)c4ccccc4n(C)c23)O1 (stereo unspecified)
Reply: > 10 µM (inactive)

###

# Test system: ACHN
# Procedure text: NCI tumour cell line growth inhibition, 48 h
Calls of active or inactive are those of the source. No stated cut-off is given here; in the data, active = GI50 up to about 1.1 µM and inactive = higher.
Readout: GI50

C/C(=N/Nc1ccc([N+](=O)[O-])cc1[N+](=O)[O-])C(CC(C(=O)NCc1ccccc1)/C(C)=N\Nc1ccc([N+](=O)[O-])cc1[N+](=O)[O-])C(=O)NCc1ccccc1 (configuration not stated); 5.46 µM (inactive)
CCc1cccc(CC)c1NC(=O)C1=CNC(C)=C(C(=O)Nc2c(CC)cccc2CC)C1c1ccc(O)c(OC)c1 (configuration not stated); 32.5 µM (inactive)
CCC1(c2ccc(N3C(=O)c4cccc5cc([N+](=O)[O-])cc(c45)C3=O)cc2)CCC(=O)NC1=O (configuration not stated); 11.5 µM (inactive)
CCOC(=O)C(Cc1ccc2ccccc2c1)(Cc1ccc2ccccc2c1)C(C)=O; > 10 µM (inactive)
O=C1CN=C(c2ccccc2)c2ccncc2N1; > 100 µM (inactive)

Query: For ACHN, give the measured GI50 of the entry CC1CC[C@@]2(OC1)OC1C[C@H]3[C@@H]4CC=C5CC(OC6OC(CO)C(OC7OC(CO)C(O)C(OC8OCC(O)C(O)C8O)C7OC7OC(CO)C(OC8OC(C)C(OC9OC(C)C(O)C(O)C9O)C(O)C8O)C(O)C7O)C(O)C6O)CCC5(C)[C@H]4CCC3(C)C1[C@@H]2C (some centres not stated)
Reply: 2.5 µM (inactive)

Query: For ACHN, give the measured GI50 of the entry CC(CCCOC(c1ccccc1)(c1ccccc1)c1ccccc1)OC(=O)Nc1cc([N+](=O)[O-])cc([N+](=O)[O-])c1 (configuration not stated)
Reply: 27.7 µM (inactive)

Query: For ACHN, give the measured GI50 of the entry COc1ccc(Cc2nc3cc([N+](=O)[O-])ccc3n2C[C@@H]2CCCN3CCCCC23)cc1 (some centres not stated)
Reply: 33.2 µM (inactive)

Query: For ACHN, give the measured GI50 of the entry Cn1c(N)[n+](C(=O)OCc2ccccc2)c(=O)c2c1ncn2C(=O)OCc1ccccc1
Reply: 24.4 µM (inactive)

Query: For ACHN, give the measured GI50 of the entry Cc1ccc(S(=O)(=O)NC(C)C(=O)O)cc1 (configuration not stated)
Reply: > 100 µM (inactive)

Query: For ACHN, give the measured GI50 of the entry O=C1C(=C(C(F)(F)Cl)C(F)(F)Cl)C2CCC1C2 (configuration not stated)
Reply: 1.84 µM (inactive)
